# study-target: Neu5Ac(a2-3)Gal(b1-4)GlcNAc(b1-3)Gal(b1-4)GlcNAc(b1-3)[Neu5Ac(a2-3)Gal(b1-4)GlcNAc(b1-3)Gal(b1-4)GlcNAc(b1-6)]GalNAc
# protocol-text: glycan array binding signal (z-score within array); higher = stronger binding
# assay-context: glycan notation: IUPAC condensed, linker removed
Shown is part of a subset that was picked to be rich in the strongest signals.
readout-label: glycan array binding signal (z-score)

// solved cases for glycan array binding signal (z-score) follow
Pbx2CASH domain (Cryptococcus neoformans) (protein) GIPGPNRLYRLSGPIIFTAADQEIATYGYPTGSERAVLRVEGRNTATAIQGDCRRCARVSVKNLVVDGNRKKLGRMRDFQLATGLVVLGGNEGQSIQNSWIKNPRGFTAIHIREGDKLQCSGARVEKNEIGPVGEEYDPEKDGDDPEMSPLGRPLADGVSIACRDSFIRDNTFRDNTDAAIVVYCSPGTLIHA | 0.079
Epa20 (Candida glabrata) (protein) MGSSHHHHHHSSGLVPRGSHMASSNIPNNYPLGCSNKYSGHLPGLKMELYSYNYVNPRHPDPQNPGKLDQLYDPNLLGTYECFDSSYKDINYPRVGYKSKTLIGRSDGVSGILNFNFVPPWGCMPQKGQLPPAYNFKSNITLSNFTMILFGYFKPKISGNHIFSLHGDDLIYLNFGAGNAFDCCRQESSADNFGNYQAFSLWGINWEKKTLTVYLDMNTYYPIRIFYNNRDYQAIFNFSFKTEFDSSPVIDFQDYFFFLRDIDGGCPGEV | 4.06
SSR2 (Sclerotium rolfsii) (protein) MVYKITVRVYQTNPDAFFHPVEKTVWKYANGGTWSITDDQHVLTMGGSGTSGTLRFHADNGESFTATFGVHNYKRWCDIVTNLAADETGMVINQQYYSQKNREEARERQLSNYQVKNAKGRNFQIVYTEAEGNDLHANLIIG | -0.267
PNGase F (Flavobacterium meningosepticum) (protein) GIPAPADNTVNIKTFDKVKNAFGDGLSQSAEGTFTFPADVTAVKTIKMFIKNECPNKTCDEWDRYANVYVKNKTTGEWYEIGRFITPYWVGTEKLPRGLEIDVTDFKSLLSGNTELKIYTETWLAKGREYSVDFDIVYGTPDYKYSAVVPVVQYNKSSIDGVPYGKAHTLALKKNIQLPTNTEKAYLRTTISGWGHAKPYDAGSRGCAEWCFRTHTIAINNSNTFQHQLGALGCSANPINNQSPGNWTPDRAGWCPGMAVPTRIDVLNNSLIGSTFSYEYKFQNWTNNGTNGDAFYAISSFVIAKSNTPISAPVVTNLDPHHHHHH | -0.043
Als3-2 (Candida albicans) (protein) KTITGVFNSFNSLTWSNAATYNYKGPGTPTWNAVLGWSLDGTSASPGDTFTLNMPCVFKFTTSQTSVDLTAHGVKYATCQFQAGEEFMTFSTLTCTVSNTLTPSIKALGTVTLPLAFNVGGTGSSVDLEDSKCFTAGTNTVTFNDGGKKISINVDFERSNVDPKGYLTD | 6.15

Using the record for Aap lectin (Staphylococcus epidermidis) (protein) VNLNYSSPFMSLLSMPADSSSNNTKNTIDIPPTTVKGRDNYDFYGRVDIESNPTDLNATNLTRYNYGQPPGTTTAGAVQFKNQVSFDKDFDFNIRVANNRQSNTTGADGWGFMFSKKDGDDFLKNGGILREKGTPSAAGFRIDTGYYNNDPLDKIQKQAGQGYRGYGTFVKNDSQGNTSKVGSGTPSTDFLNYADNTTNDLDGKFHGQKLNNVNLKYNASNQTFTATYAGKTWTATLSELGLSPTDSYNFLVTSS , state its measured glycan array binding signal (z-score).
-0.88

Using the record for LecB PA14 (Pseudomonas aeruginosa) (protein) MATQGVFTLPANTQFGVTAFANSAGTQTVNVQVNNETVATFTGQSTNNAIIGSKVLNSGGGGKVQILVSVNGRSSDLVSAQVILANELNFALVGSEDSTDNDYNDAVVVINWPLG , state its measured glycan array binding signal (z-score).
-0.427
